target: recombinant human raf1 (Homo sapiens, UniProt P04049); assay: Raf1 direct kinase assay (KinaseGlo); conditions: printed in the RAF-MEK column
Sequence (P04049 whole entry): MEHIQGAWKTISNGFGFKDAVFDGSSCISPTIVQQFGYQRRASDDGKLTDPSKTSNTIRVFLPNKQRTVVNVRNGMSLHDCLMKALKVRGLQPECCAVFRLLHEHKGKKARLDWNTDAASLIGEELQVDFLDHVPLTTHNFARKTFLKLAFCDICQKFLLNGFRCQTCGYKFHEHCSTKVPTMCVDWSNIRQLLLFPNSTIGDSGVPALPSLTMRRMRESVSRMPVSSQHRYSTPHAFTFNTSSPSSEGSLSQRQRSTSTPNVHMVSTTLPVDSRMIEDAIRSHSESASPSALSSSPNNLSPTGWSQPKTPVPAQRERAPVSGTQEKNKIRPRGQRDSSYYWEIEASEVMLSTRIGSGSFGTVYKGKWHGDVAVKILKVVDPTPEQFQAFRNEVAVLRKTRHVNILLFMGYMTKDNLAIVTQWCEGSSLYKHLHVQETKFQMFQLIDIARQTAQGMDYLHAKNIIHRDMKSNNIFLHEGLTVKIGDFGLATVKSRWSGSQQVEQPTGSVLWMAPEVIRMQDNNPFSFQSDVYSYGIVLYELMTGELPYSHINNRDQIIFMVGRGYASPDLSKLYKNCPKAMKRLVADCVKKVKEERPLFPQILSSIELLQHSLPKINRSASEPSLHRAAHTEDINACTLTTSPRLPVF
Counter-ions that a name gives are not always drawn.
attribute_measured: IC50 (nM)
Quick reminder: number only, in nM, skip the unit.

stdin: What value of IC50 has been reported for the following compound? CNC(=O)c1cc(Oc2ccc3nc(Nc4ccc(Cl)cc4)nnc3c2)ccn1 [trifluoroacetate salt]
stdout: 77

---

system: p-MEK and p-ERK levels in HUVECs; assay: Western Blot, inhibition of MAPK pathway in cellular assay (Example 105); type: cell-based, human; conditions: at 5 uM, 50 ng/ml VEGF or FGF
Counter-ions that a name gives are not always drawn.

compound	Western Blot
Nc1cc(Oc2ccc(-c3nnc(Nc4cccc(Cl)c4)o3)cc2)nc(N)n1	active at 5 uM
FC(F)(F)c1cc(-c2nnc(Nc3ccc(Oc4cccnc4)cc3)[nH]2)ccc1Cl [trifluoroacetate salt]	active at 5 uM
Nc1ccc(Oc2ccc(Nc3nnc(-c4ccc(Cl)c(C(F)(F)F)c4)[nH]3)cc2)nn1 [trifluoroacetate salt]	active at 5 uM
Nc1cc(Oc2ccc(-c3nnc(Nc4ccc(Cl)c(C(F)(F)F)c4)[nH]3)cc2)nc(N)n1	active at 5 uM

---

biological target: raf1 with inactive MEK1 (Raf1-MEK1) (Homo sapiens, UniProt P04049); construct: purchased Upstate, Lake Placid, N.Y; assay: Raf1-MEK1 assay (KinaseGlo); format: biochemical; settings: window
Structures can show the parent of a compound that is named as a salt.
Examples of compounds with documented window follow.

Consider the following illustrative entries.
compound	obs_value
CNC(=O)c1cc(Oc2ccc3nc(Nc4ccc(Cl)c(C(F)(F)F)c4)nnc3c2)ccn1 [trifluoroacetate salt]	~20%
CNC(=O)c1cc(Oc2ccc3nc(NC(=O)c4cc(C(F)(F)F)cc(Cl)c4F)nnc3c2)ccn1 [trifluoroacetate salt]	~30%
CNC(=O)c1cc(Oc2ccc3nc(Nc4ccc(Cl)cc4)nnc3c2)ccn1 [trifluoroacetate salt]	100%

stdin: State the recorded window for this entry: CNC(=O)c1cc(Oc2ccc3nc(NC(=O)c4cccc(C(F)(F)F)c4)nnc3c2)ccn1 [trifluoroacetate salt]
stdout: ~70%

---

tested on: p-MEK and p-ERK levels in HUVECs; test: Western Blot, inhibition of MAPK pathway in cellular assay (Example 105); assay type: cell-based, human; details: at 10 uM, 50 ng/ml VEGF or FGF
Structures can show the parent of a compound that is named as a salt.
attribute_measured: Western Blot

compound	Western Blot
CNC(=O)c1cc(Oc2ccc(-c3nnc(Nc4ccc(Cl)c(C(F)(F)F)c4)[nH]3)cc2)ccn1 [trifluoroacetic acid salt]	active at 10 uM
Clc1ccc(Nc2nnc(-c3ccc(Oc4cccnc4)cc3)o2)cc1	active at 10 uM
Br.Nc1nnc(-c2ccc(Oc3cccnc3)cc2)o1	not active at 10 uM
FC(F)(F)c1cccc(Nc2nnc(-c3ccc(Oc4cccnc4)cc3)o2)c1	active at 10 uM
O=C(Nc1nnc(-c2ccc(Oc3cccnc3)cc2)o1)c1ccccc1OC(F)(F)F	not active at 10 uM
O=C(Nc1nnc(-c2ccc(Oc3cccnc3)cc2)o1)c1cc(C(F)(F)F)cc(Cl)c1F	not active at 10 uM

stdin: What value of Western Blot has been recorded for this entry: "O=C(Nc1nnc(-c2ccc(Oc3cccnc3)cc2)o1)c1ccc2c(c1)OC(F)(F)O2"
stdout: not active at 10 uM

stdin: Next: "O=C(Nc1nnc(-c2ccc(Oc3cccnc3)cc2)o1)c1cccc(C(F)(F)F)c1"
stdout: active at 10 uM

stdin: Query "O=C(Nc1nnc(-c2ccc(Oc3cccnc3)cc2)o1)c1ccc(Br)cc1" next
stdout: not active at 10 uM

stdin: Lookup "O=C(Nc1nnc(-c2ccc(Oc3cccnc3)cc2)o1)c1cccc(OC(F)(F)F)c1"
stdout: not active at 10 uM

stdin: What about this compound? "O=C(Nc1nnc(-c2ccc(Oc3cccnc3)cc2)o1)c1ccc(OC(F)(F)F)cc1"
stdout: not active at 10 uM

stdin: Check "COc1ccc(C(=O)Nc2nnc(-c3ccc(Oc4cccnc4)cc3)o2)cc1C(F)(F)F" too.
stdout: active at 10 uM

stdin: Again, but for "O=C(Nc1nnc(-c2ccc(Oc3cccnc3)cc2)o1)c1ccc(F)c(C(F)(F)F)c1"
stdout: active at 10 uM

---

# IC50 annotations
molecular target: raf1 with inactive MEK1 (Raf1-MEK1) (Homo sapiens, UniProt P04049); test: Raf1-MEK1 assay (KinaseGlo); conditions: Raf-Mek, 3 uM ATP; read-out: RAF-MEK assay (biochemical assay)
Counter-ions that a name gives are not always drawn.

Use these answered entries as a reference point.
compound	IC50
CNC(=O)c1cc(Oc2ccc3nc(NS(=O)(=O)c4ccc(Cl)s4)nnc3c2)ccn1 [trifluoroacetate salt]	> 50 µM
CNC(=O)c1cc(Oc2ccc3nc(Nc4ccc(Cl)cc4)nnc3c2)ccn1 [trifluoroacetate salt]	10 to 50 µM
CNC(=O)c1cc(Oc2ccc3nc(NS(=O)(=O)c4cc(Cl)ccc4OC)nnc3c2)ccn1 [trifluoroacetate salt]	> 50 µM

stdin: Fill in the blank: the reported IC50 of CNC(=O)c1cc(Oc2ccc3nc(NC(=O)c4ccc(Cl)c(C(F)(F)F)c4)nnc3c2)ccn1 [trifluoroacetate salt] is ____.
stdout: 10 to 50 µM
